Item-by-item account of growth inhibition
# Assay Procedure: NCI Yeast Anticancer Drug Screen. Data for the mec2-1 strain (AID 157)
# Protocol Conditions: S. cerevisiae mec2-1 strain, at 50.0 µM, hits give high values
About 79,000 compounds went through this panel and 15% of them were active in at least one assay; those are over-represented in the sample as a whole.
Readout Name: growth inhibition (%)

Compound	Recorded Value
O=C(O)c1cccc(S(=O)(=O)NN2C(=O)CSC2c2ccccc2)c1 (configuration not stated)	-18.5
Cc1cc(NC(=O)N(CCCl)N=O)c(C)cc1NC(=O)c1ccccc1	-22.5
CCOP(=O)(OCC)c1nc(Cl)nc(Cl)c1SC(F)(F)F	11.3
CCSC(SCC)C(Nc1ccc([N+](=O)[O-])cc1[N+](=O)[O-])C(OC(C)=O)C(OC(C)=O)C(COC(C)=O)OC(C)=O (configuration not stated)	9.65
C=C1CCC1	-11.5
Cc1ncc(C(=O)O)c(CO)c1N	-15.9
Oc1ccc(O)c(-n2cccn2)c1-n1cccn1	-4.55
COC(=O)c1ccccc1C1CN=NC12Cc1cc(C)ccc1C2=O (configuration not stated)	14.2
c1cnc2c3ccncc3c3nc(-c4ccncc4)[nH]c3c2c1	-12.8
N#CCC(=O)N/N=C/c1ccccc1	-27.1
O=C(c1ccccc1)N1C(c2ccccc2)C1(c1ccccc1)C1(c2ccccc2)SCCCS1 (configuration not stated)	14.7
Cn1c(=O)c2c(n(C)c1=O)n(C)c(=O)n2C	8.25
CC(=O)Nc1c(C)ccc(C)c1C(=O)O	-0.7
CCOCC(=O)O	-1.25
CSCCC(NC(C)=O)C(C)=O (configuration not stated)	-9.35
CCCc1nc2ccccc2c(=O)n1/N=C/c1ccc(Cl)cc1Cl	0.4
O=[N+]([O-])c1ccc(N=N/C(=N\Nc2ccccc2)c2nc3ccccc3[nH]2)c([N+](=O)[O-])c1	-5.2
O=C(O)c1cc(/C=C/c2cc(O)ccc2O)ccc1O	-21.8
CC(C)CNC(=S)N/N=C/C=C/c1ccc([N+](=O)[O-])cc1	10.4
COc1ccc(CC(=O)c2c(O)c3c(c(CC=C(C)C)c2OC)OC(C)(C)C=C3)cc1	-26.3
CCOC(=O)C(CNCc1ccccc1)C1CCCCC1 (configuration not stated)	1.65
O=C1C2=C(Nc3ccccc3N2)OC1c1ccccc1Cl (configuration not stated)	-11.7

###

# Assay Procedure: NCI Yeast Anticancer Drug Screen. Data for the mec2-1 strain (AID 157)
# Protocol Conditions: S. cerevisiae mec2-1 strain, at 50.0 µM, hits give high values
This is part of a sample that, as a whole, favours compounds with a hit. Of some 79,000 tested, about 15% had one in any assay.
Item-by-item account of growth inhibition
Readout Name: growth inhibition (%)

Compound	Readout Name	Recorded Value
BrCCCC1OCCO1	growth inhibition	53
COCC(=O)c1ccccc1	growth inhibition	1.7
CC(C)(O)c1cc(=O)n(-c2ccccc2)[nH]1	growth inhibition	-6.3
CC(C)CNCCCC(C)Nc1ccnc2cc(Cl)ccc12 (stereo unspecified)	growth inhibition	-1.45
CC1(C)Cc2[nH]c3ccccc3c(=O)c2-c2nc3ccccc3c(=O)n21	growth inhibition	6.05
CC1c2nc(N)nc(N)c2CN1C(=O)c1ccccc1 (stereo unspecified)	growth inhibition	-5.7
CN=C(C#N)c1ccccc1	growth inhibition	-17.1
CC1(O)C=CC2CCC1C2O (stereo unspecified)	growth inhibition	-2.55
CN(CC(O)CN1CCCc2ccccc21)C1CCCCC1 (stereo unspecified)	growth inhibition	0.25
O=c1c2ccccc2nc(-c2ccccc2)n1/N=C/c1cccnc1	growth inhibition	49.5
FC(F)(F)C(F)(F)C(F)(F)c1nnnn1-c1ccccc1	growth inhibition	-0.8

###

Item-by-item account of growth inhibition
# Assay Procedure: NCI Yeast Anticancer Drug Screen. Data for the rad50 strain (AID 155);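 note: 0% = growth of vehicle-only cultures of the same strain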
# Protocol Conditions: S. cerevisiae rad50 strain growth inhibition; at 50.0 µM; hits give high values
About 79,000 compounds went through this panel and 15% of them were active in at least one assay; those are over-represented in the sample as a whole.
Readout Name: growth inhibition (%)

Compound	Readout Units	Recorded Value
Nc1nc(Cl)c(Cl)nc1C(=O)O	%	-4.65
CCOc1ccc(NC(=O)CC2SC(=Nc3ccc(C)cc3C)NC2=O)cc1 (centres undefined)	%	12.6
NC12CC3CC(C1)CC(Cl)(C3)C2	%	-12.6
Cc1ccc(Sc2cc([N+](=O)[O-])cc(Sc3ccc(C)cc3)c2Sc2ccc(C)cc2)cc1	%	22.2
COC(=O)C1=COC(OC2OC(CO)C(O)C(O)C2O)C2C(C)CC(=O)C12 (centres undefined)	%	-39.2
Cc1ccc(N=C(NN(C)C)C(c2ccccc2)c2ccccc2)cc1	%	2.55
Nc1[nH]nc2nc3n(c(=O)c12)CCCCC3	%	7.1
O=S1(=O)C(Cl)c2ccccc2-c2ccccc2C1Cl (centres undefined)	%	-1.35
CC(C)OC(=O)N1CCCC1	%	12

###

# Assay Procedure: NCI Yeast Anticancer Drug Screen. Data for the sgs1 mgt1 strain (AID 161);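 note: 0% = growth of cultures given vehicle only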
# Protocol Conditions: S. cerevisiae sgs1 mgt1 strain, at 50.0 µM, hits give high values
This is part of a sample that, as a whole, favours compounds with a hit. Of some 79,000 tested, about 15% had one in any assay.
Decide using growth inhibition: a value greater than or equal to -10% is criterion met, a smaller one is criterion not met.

Compound	Discrete Label
NC12CC3CC(C1)CC(Cl)(C3)C2	criterion not met
CCNOCc1ccccc1	criterion not met
O=C(c1ccccc1)C(CBr)C(Br)c1ccccc1 (stereo not drawn)	criterion met
CC(=O)c1sc2c(c1OC(=O)c1ccc(Cl)cc1)c(=O)n(-c1ccccc1)c(=S)n2-c1ccccc1	criterion not met
Clc1ccc(OCCSCCOc2ccc(Cl)cc2)cc1	criterion met
COc1ccc(/C=N/n2cnc3c(c2=O)SC(=C(C#N)C#N)N3c2ccccc2)cc1	criterion not met
COC1OC(COC(=O)c2ccc([N+](=O)[O-])cc2)C(SC#N)C1O (stereo not drawn)	criterion met
CC(C)OC(=O)N1CCCC1	criterion met

###

# Assay Procedure: NCI Yeast Anticancer Drug Screen. Data for the bub3 strain (AID 167)
# Protocol Conditions: S. cerevisiae bub3 mutant strain, at 50.0 µM, hits give high values
# Method: Growth inhibition of yeast strains with defined genetic alterations is measured as a screen for potential anti-cancer activity. Selected strains with alterations in DNA damage repair or cell cycle control were exposed to compounds and growth inhibition was measured relative to vehicle treated controls. The strain used in this assay is bub3
About 79,000 compounds went through this panel and 15% of them were active in at least one assay; those are over-represented in the sample as a whole.
Item-by-item account of growth inhibition
Readout Name: growth inhibition (%)

Compound	Readout Units	Recorded Value
C(=C/c1ccccn1)/c1ccccc1	%	14.6
COc1ccc(C2Oc3cc(OC)c(OC)cc3C2CCl)cc1OC (stereo unspecified)	%	-26.9
O=C(/N=C1\N=Nc2nc(C(C(=O)c3cccc([N+](=O)[O-])c3Cl)c3nc4n(c3O)/C(=N/C(=O)Nc3ccc(Cl)cc3)N=N4)c(O)n21)Nc1ccc(Cl)cc1 (stereo unspecified)	%	0.7
COc1cc(-c2ccc(Nc3ccccc3C(=O)O)c(OC)c2)ccc1Nc1ccccc1C(=O)O	%	3.8
Cc1ccccc1NC(=O)Nc1ccccc1C	%	-20.2
CCC(=O)c1cc(-c2cc(C(=O)CC)[nH]n2)n[nH]1	%	2.15
Clc1ccc(Cl)c(Nc2ccnc(SCc3ccccc3)n2)c1	%	-7
O/N=C\c1cccc[n+]1Cc1ccc2ccccc2c1Br	%	10.7
COC(=O)C1=C(C(=O)OC)C(C)(C)N=N1	%	16.1
CC1=NN(C(=O)CC(=O)NC(=O)CC(=O)Nc2ccccc2F)C(=O)C1N=Nc1ccc([N+](=O)[O-])cc1 (stereo unspecified)	%	12.1
CCCCn1cnc2c(SCCNC(=O)N(C)N=O)ncnc21	%	3.5

###

Item-by-item account of growth inhibition
# Assay Procedure: NCI Yeast Anticancer Drug Screen. Data for the bub3 strain (AID 167)
# Protocol Conditions: S. cerevisiae bub3 mutant strain, at 50.0 µM, hits give high values
About 79,000 compounds went through this panel and 15% of them were active in at least one assay; those are over-represented in the sample as a whole.

Compound	growth inhibition [%]
CC(C)(C)OC(=O)NC(CS(=O)(=O)O)C(=O)O (stereo not drawn)	13
O=[N+]([O-])c1cc2c3ccccc3c([N+](=O)[O-])cc2c2ccccc12	-10.5
O=C(Nc1ccc(Cl)cc1Cl)C(=O)C(C(=O)c1ccncc1)C1OC(=O)c2ccccc21 (stereo not drawn)	7.95

###

# Assay Procedure: NCI Yeast Anticancer Drug Screen. Data for the mlh1 rad18 strain (AID 175)
# Protocol Conditions: S. cerevisiae mlh1 rad18 strain growth inhibition; at 50.0 µM; hits give high values
About 79,000 compounds went through this panel and 15% of them were active in at least one assay; those are over-represented in the sample as a whole.
Item-by-item account of growth inhibition

Compound	Readout Units	growth inhibition
C=C(CC(=O)OC)C(=O)OC	%	9.45
O=C1C(O)=C(c2ccccc2)C(=O)N1Cc1ccccc1	%	-6.6
O=c1c(Cl)c(Cl)cnn1-c1ccc([N+](=O)[O-])cc1[N+](=O)[O-]	%	5.75
COc1nc(NC2OC(CO)C(O)C(O)C2O)cc(=O)[nH]1 (stereo unspecified)	%	-6.45
CCOc1cccc(N(CC)CC)c1	%	13.4
O=C1c2ccccc2-c2ccc3c4ccc5c6c(ccc(c7ccc1c2c73)c64)C(=O)c1ccccc1-5	%	37.5
NCCN1C(=O)c2ccccc2C1(O)c1ccc(Cl)cc1 (stereo unspecified)	%	-0.65
c1cc2c3c(cccc3c1)N=S=N2	%	12.2
ON(CCc1ccncc1)Cc1ccccc1	%	15.5
C[n+]1c(/C=C/C=C/c2ccccc2)oc2ccccc21	%	9.7
CC1OC2(CC(OCc3ccccc3)C1OCc1ccccc1)OCCO2 (stereo unspecified)	%	-31.9
COc1ccc(C(C)c2cc3c(cc2OCC(=O)O)OCO3)cc1OC (stereo unspecified)	%	-3.2
CCCCOCCOCCOC(=O)c1ccc(C)cc1	%	11
CCN(CC)CCNc1cccc(Cl)c1	%	47.5
CC1=C(C#[N+][O-])C(C)(C)CCC1	%	-16.2
CSc1nc2nc(C)[nH]c2c(=O)[nH]1	%	7.6
CCc1cccc(C)c1NC(=O)CCc1nnc2s/c(=C\c3cccc4ccccc34)c(=O)n12	%	33.2
C[n+]1ccc(/C=C/c2c[nH]c3ccccc23)cc1	%	-8.3
c1ccc2c(c1)CC1c3ccccc3CC21 (stereo unspecified)	%	-2.35
O=c1n(-c2ccccc2)c(=O)n2c(-c3ccccc3)c(-c3ccccc3)n12	%	-30.8
O=C(O)C1CCCCC1O (stereo unspecified)	%	1.3
CCOC(=O)C(Cc1ccc(O)cc1)NC(=O)c1cc2c(cn1)[nH]c1ccccc12 (stereo unspecified)	%	4.65
CC1(C)OC2C(C3N(c4ccccc4)CCN3c3ccccc3)OC(n3ccc(=O)[nH]c3=O)C2O1 (stereo unspecified)	%	-12.7
COc1ccc([N+](=O)[O-])cc1N=NN(C)C	%	-8.45
CCOC(=O)NC(Nc1ccc(OC(F)(F)F)cc1)(C(F)(F)F)C(F)(F)F	%	-0.3
N#Cc1c2c([nH]c(=O)c1C#N)CCCC2	%	-23.1
C(=C\c1cc(-c2cc(/C=C/c3ccccc3)[nH]n2)n[nH]1)/c1ccccc1	%	44.4
NC(=O)NC(=O)NCc1ccccc1	%	-4.9
COc1ccc2nc3c([N+](=O)[O-])ccc(NCCCN(C)C)c3c(NCCCN(C)C)c2c1	%	-1.6
COC(=O)C1CN(Cc2ccccc2)C(=O)C1=O (stereo unspecified)	%	15.2
O=S(=O)(O)SCCNCCCCc1ccccc1	%	-22.8
